experimentNotes: Displacement of thiazole orange from RNA A by fluorescent intercalator displacement assay
measure: pKd
Remember, pKd is on a log scale: it is -log10 of the molar concentration.

Use these answered entries as a reference point.
| sampleSmiles | resultNumber |
| --- | --- |
| N=C(N)NCCC[C@@H]1NC(=O)c2cccc3c(Nc4ccccc4)cc(nc23)-c2ccc(cc2)C/C=C/C[C@@H](C(N)=O)NC(=O)CNC(=O)[C@H](CCCCN)NC1=O | 6.46 |
| N=C(N)NCCC[C@@H]1NC(=O)c2cccc3c(Nc4ccccc4)cc(nc23)-c2ccc(cc2)C/C=C/C[C@@H](C(N)=O)NC(=O)[C@H](CC(N)=O)NC(=O)[C@H](CC(N)=O)NC1=O | 5.85 |

Next compound, pKd to be filled in.
Input line: For CC(C)C[C@@H]1NC(=O)[C@H](CC(N)=O)NC(=O)[C@H](CCCNC(=N)N)NC(=O)c2cccc3c(Nc4ccccc4)cc(nc23)-c2ccc(cc2)C/C=C/C[C@@H](C(N)=O)NC1=O , what is its reported pKd?
Output line: 4.72

Values were extracted from ChEMBL document CHEMBL1144220.
